System: HIV-1
assay.details: Inhibition of HIV-1-induced cytopathic effect (CPE) in MT-4 cells
Assay type: cell-based, HIV-1 (LAV-1) in human MT-4 cells
conditions: MT-4 cells, HIV-1
value.type: CPE inhibitory effect (in words)

compound="CC(=O)OCC1=C[C@H]2[C@@H]3C(C)(C)[C@]3(OC(C)=O)[C@H](OC(C)=O)[C@@H](C)[C@]2(O)[C@@H]2C=C(C)C(=O)[C@]2(OC(C)=O)C1 [Compound 23, 4α-Phorbol-4,12,13,20-tetraacetate]" measured_on=HIV-1 experimental_value="showed no effect"
compound="CC(=O)OCC12CC3(O)C(=O)C1(C)C1C3C3(O)C(C)C(OC(C)=O)C4(OC(C)=O)C(C3C12)C4(C)C (stereo not shown) [Compound 24, Lumiphorbol-12,13,20-triacetate]" measured_on=HIV-1 experimental_value="showed no effect"
compound="CCCC(=O)OCC1=C[C@H]2[C@@H]3C(C)(C)[C@]3(OC(=O)CCC)[C@H](OC(=O)CCC)[C@@H](C)[C@]2(O)[C@@H]2C=C(C)C(=O)[C@]2(O)C1 [Compound 22, 4α-Phorbol-12,13,20-tributyrate]" measured_on=HIV-1 experimental_value="showed no effect"

###

Tested on: protein kinase C (PKC)
Format: biochemical, mouse
conditions: concentration not given
value.type: activation of PKC (in words)

compound="CC1=C[C@H]2[C@@]3(O)[C@H](C)[C@@H](O)[C@]4(O)[C@H]([C@@H]3C=C(CO)C[C@]2(O)C1=O)C4(C)C [Compound 9, Phorbol]" measured_on="protein kinase C (PKC)" value_type="activation of PKC (in words)" experimental_value="weak activators of PKC"
compound="CC1=C[C@@H]2[C@@H](CC(CO)=C[C@H]3[C@@H]4C(C)(C)[C@]4(O)[C@H](O)[C@@H](C)[C@]23O)C1=O [Compound 20, 4-Deoxy-4α-phorbol]" measured_on="protein kinase C (PKC)" value_type="activation of PKC (in words)" experimental_value="weak activators of PKC"
compound="CC1=C[C@H]2[C@@]3(O)[C@H](C)[C@@H](O)[C@]4(O)[C@H]([C@@H]3C=C(CO)C[C@@]2(O)C1=O)C4(C)C [Compound 19, 4α-Phorbol]" measured_on="protein kinase C (PKC)" value_type="activation of PKC (in words)" experimental_value="weak activators of PKC"

###

System: protein kinase C (PKC)
Type: biochemical, mouse
conditions: 10 ng/mL (standard concentration)
value.type: PKC activation (in words)

molecule="CC(=O)O[C@@]12[C@H](O)[C@@H](C)[C@@]3(O)[C@@H](C=C(CO)C[C@]4(O)C(=O)C(C)=C[C@@H]34)[C@@H]1C2(C)C [Compound 10, 13-O-Acetylphorbol]" experimental_value="did not activate PKC"
molecule="CC(=O)OCC1=C[C@H]2[C@@H]3C(C)(C)[C@]3(OC(C)=O)[C@H](OC(C)=O)[C@@H](C)[C@]2(O)[C@@H]2C=C(C)C(=O)[C@@]2(O)C1 [Compound 11, Phorbol-12,13,20-triacetate]" experimental_value="did not activate PKC"
molecule="CC(=O)OCC1=C[C@H]2[C@@H]3C(C)(C)[C@]3(OC(C)=O)[C@H](OC(C)=O)[C@@H](C)[C@]2(O)[C@@H]2C=C(C)C(=O)[C@]2(OC(C)=O)C1 [Compound 23, 4α-Phorbol-4,12,13,20-tetraacetate]" experimental_value="did not activate PKC"

###

Listing of recorded % Activity of PKC by entry.
Tested on: protein kinase C (PKC)
Type: biochemical, mouse
conditions: 10 ng/mL; relative to TPA positive control
value.type: % Activity of PKC (%)

molecule="CCCC(=O)OCC1=C[C@H]2[C@@H]3C(C)(C)[C@]3(OC(=O)CCC)[C@H](OC(=O)CCC)[C@@H](C)[C@]2(O)[C@@H]2C=C(C)C(=O)[C@]2(O)C1 [Compound 22, 4α-Phorbol-12,13,20-tributyrate]" measured_on="protein kinase C (PKC)" value_type="% Activity of PKC" reading_unit=% experimental_value=0
molecule="CCCCCCCCCC(=O)O[C@@H]1[C@@H](C)[C@@]2(O)[C@@H](C=C(CO)C[C@]3(O)C(=O)C(C)=C[C@@H]23)[C@@H]2C(C)(C)[C@]12OC(=O)C(C)CC (some centres unmarked)" measured_on="protein kinase C (PKC)" value_type="% Activity of PKC" reading_unit=% experimental_value=0
molecule=C/C=C(\C)C(=O)O[C@@]12[C@H](O)[C@@H](C)[C@@]3(O)[C@@H](C=C(COC(=O)CCCCCCC/C=C\C/C=C\CCCCC)C[C@]4(O)C(=O)C(C)=C[C@@H]34)[C@@H]1C2(C)C measured_on="protein kinase C (PKC)" value_type="% Activity of PKC" reading_unit=% experimental_value=14
molecule=CC1=C[C@H]2[C@@]3(O)[C@H](C)[C@@H](O)[C@]4(O)[C@H]([C@@H]3C=C(CO)C[C@]2(O)C1=O)C4(C)C measured_on="protein kinase C (PKC)" value_type="% Activity of PKC" reading_unit=% experimental_value=8
molecule="CO[C@]12CC(COC(C)=O)=C[C@H]3[C@@H]4C(C)(C)[C@]4(OC(C)=O)[C@H](OC(C)=O)[C@@H](C)[C@]3(O)[C@@H]1C=C(C)C2=O [Compound 16, 4-O-Methylphorbol-12,13,20-triacetate]" measured_on="protein kinase C (PKC)" value_type="% Activity of PKC" reading_unit=% experimental_value=0

###

Listing of recorded MCC at 120 h by entry.
assay.details: Cell growth / viability of MT-4 cells (cytotoxicity)
Format: cell-based
conditions: human, day 5, read-out: CC0 (concentration that reduces viability of MT-4 cells; minimum cytotoxic concentration)
value.type: MCC at 120 h (µg/mL)

compound="CC(=O)OCC1=C[C@H]2[C@@H]3C(C)(C)[C@]3(OC(C)=O)[C@H](OC(C)=O)[C@@H](C)[C@]2(O)[C@@H]2C=C(C)C(=O)[C@@]2(O)C1 [Compound 11, Phorbol-12,13,20-triacetate]" reading_unit=µg/mL experimental_value=125
compound="CO[C@]12CC(COC(C)=O)=C[C@H]3[C@@H]4C(C)(C)[C@]4(OC(C)=O)[C@H](OC(C)=O)[C@@H](C)[C@]3(O)[C@@H]1C=C(C)C2=O [Compound 16, 4-O-Methylphorbol-12,13,20-triacetate]" reading_unit=µg/mL experimental_value=125
compound="CCCCCCCCCCCCCC(=O)O[C@@H]1[C@@H](C)[C@@]2(O)[C@@H](C=C(COC(C)=O)C[C@]3(O)C(=O)C(C)=C[C@@H]23)[C@@H]2C(C)(C)[C@]12OC(C)=O [Compound 14]" reading_unit=µg/mL experimental_value=62.5
compound="CCCCCCCCCC(=O)O[C@@]12[C@H](OC(C)=O)[C@@H](C)[C@@]3(O)[C@@H](C=C(CO)C[C@]4(O)C(=O)C(C)=C[C@@H]34)[C@@H]1C2(C)C [Compound 6, 12-O-Acetylphorbol-13-decanoate]" reading_unit=µg/mL experimental_value=62.5
compound="CC(=O)OCC1=C[C@H]2[C@@H]3C(C)(C)[C@]3(OC(C)=O)[C@H](OC(C)=O)[C@@H](C)[C@]2(O)[C@@H]2C=C(C)[C@H](O)[C@@]2(O)C1 [Compound 15]" reading_unit=µg/mL experimental_value=1000
compound="C/C=C(\\C)C(=O)O[C@@H]1[C@@H](C)[C@@]2(O)[C@@H](C=C(CO)C[C@]3(O)C(=O)C(C)=C[C@@H]23)[C@@H]2C(C)(C)[C@]12OC(=O)C(C)CC (stereo partly shown) [Compound 5]" reading_unit=µg/mL experimental_value=62.5
compound="C/C=C(\\C)C(=O)O[C@@]12[C@H](OC(C)=O)[C@@H](C)[C@@]3(O)[C@@H](C=C(CO)C[C@]4(O)C(=O)C(C)=C[C@@H]34)[C@@H]1C2(C)C [Compound 3, 12-O-Acetylphorbol-13-tigliate]" reading_unit=µg/mL experimental_value=500

###

Test system: protein kinase C (PKC)
Format: biochemical, mouse
conditions: 10 ng/mL; relative to TPA positive control
Listing of recorded % Activity of PKC by entry.
value.type: % Activity of PKC (%)

compound="CC(=O)O[C@@]12[C@H](O)[C@@H](C)[C@@]3(O)[C@@H](C=C(CO)C[C@]4(O)C(=O)C(C)=C[C@@H]34)[C@@H]1C2(C)C [Compound 10, 13-O-Acetylphorbol]" reading_unit=% experimental_value=0
compound="CCCCC/C=C\\C/C=C\\CCCCCCCC(=O)OCC1=C[C@H]2[C@@H]3C(C)(C)[C@]3(OC(C)=O)[C@H](OC(C)=O)[C@@H](C)[C@]2(O)[C@@H]2C=C(C)C(=O)[C@@]2(O)C1 [Compound 13, Phorbol-12,13-diacetate-20-linoleate]" reading_unit=% experimental_value=0
compound="CC(=O)OCC1=C[C@H]2[C@@H]3C(C)(C)[C@]3(OC(C)=O)[C@H](OC(C)=O)[C@@H](C)[C@]2(O)[C@@H]2C=C(C)[C@H](O)[C@@]2(O)C1 [Compound 15]" reading_unit=% experimental_value=0
compound="CC(=O)OCC12CC3(O)C(=O)C1(C)C1C3C3(O)C(C)C(OC(C)=O)C4(OC(C)=O)C(C3C12)C4(C)C (stereo not drawn) [Compound 24, Lumiphorbol-12,13,20-triacetate]" reading_unit=% experimental_value=0
compound="CC1=C[C@H]2[C@@]3(O)[C@H](C)[C@@H](O)[C@]4(O)[C@H]([C@@H]3C=C(CO)C[C@@]2(O)C1=O)C4(C)C [Compound 19, 4α-Phorbol]" reading_unit=% experimental_value=1
compound="C/C=C(\\C)C(=O)O[C@@H]1[C@@H](C)[C@@]2(O)[C@@H](C=C(CO)C[C@]3(O)C(=O)C(C)=C[C@@H]23)[C@@H]2C(C)(C)[C@]12OC(=O)C(C)CC (stereo partly drawn) [Compound 5]" reading_unit=% experimental_value=10
